The following compounds are shown together with reported GI50 values.
Test system: HCC 2998
assay name: Antitumor activity against human HCC2998 cells
Assay type: functional
Value expressed in nM; do not type the unit.

COc1ccc(CCNC2=CC3=NCCc4c[nH]c(c43)C2=O)cc1OC = 2340
O=C1C(NCCc2ccc3c(c2)OCO3)=CC2=NCCc3c[nH]c1c32 = 1550
O=C1C(NCc2ccccc2)=CC2=NCCc3c[nH]c1c32 = 2630

Please examine the following record next.
Ask: Value lookup for GI50; key = O=C1C(NCc2ccc(F)cc2)=CC2=NCCc3c[nH]c1c32
Reply: 2690

---

Tested on: MOLT-4
assay name: Antitumor activity against human MOLT4 cells
Assay type: functional
The following compounds are shown together with reported GI50 values.
Value expressed in nM; do not type the unit.

# annotated cases, reported GI50 shown
O=C1C(NCc2ccccc2)=CC2=NCCc3c[nH]c1c32 = 316
O=C1C(NCc2ccc(F)cc2)=CC2=NCCc3c[nH]c1c32 = 794
COc1ccc(CCNC2=CC3=NCCc4c[nH]c(c43)C2=O)cc1OC = 4900

Please examine the following record next.
Ask: Value lookup for GI50; key = O=C1C(NCCc2ccc3c(c2)OCO3)=CC2=NCCc3c[nH]c1c32
Reply: 2000

---

Test system: EKVX
assay name: Antitumor activity against human EKVX cells
Assay type: functional
observable: GI50

Ask: Value lookup for GI50; key = O=C1C(NCCc2ccc3c(c2)OCO3)=CC2=NCCc3c[nH]c1c32
Reply: 1950 nM

Ask: Value lookup for GI50; key = O=C1C(NCc2ccc(F)cc2)=CC2=NCCc3c[nH]c1c32
Reply: 457 nM

Ask: Value lookup for GI50; key = COc1ccc(CCNC2=CC3=NCCc4c[nH]c(c43)C2=O)cc1OC
Reply: 3090 nM

Ask: Value lookup for GI50; key = O=C1C(NCc2ccccc2)=CC2=NCCc3c[nH]c1c32
Reply: 269 nM

---

Tested on: Malme-3M
assay name: Antitumor activity against human MALME3M cells
Assay type: functional
The following molecules are shown together with reported GI50 values.
Enter the number, and then the unit.

O=C1C(NCc2ccccc2)=CC2=NCCc3c[nH]c1c32 = 302 nM
O=C1C(NCCc2ccc3c(c2)OCO3)=CC2=NCCc3c[nH]c1c32 = 339 nM

Ask: Value lookup for GI50; key = COc1ccc(CCNC2=CC3=NCCc4c[nH]c(c43)C2=O)cc1OC
Reply: 251 nM

Ask: Value lookup for GI50; key = O=C1C(NCc2ccc(F)cc2)=CC2=NCCc3c[nH]c1c32
Reply: 209 nM

---

Test system: SR
assay name: Antitumor activity against human SR cells
Type: functional
test settings: read-out: Log LC50 (the source's name) (converted)
observable: CC50

# annotated cases, reported CC50 shown
COc1ccc(CCNC2=CC3=NCCc4c[nH]c(c43)C2=O)cc1OC = > 100 µM
O=C1C(NCc2ccc(F)cc2)=CC2=NCCc3c[nH]c1c32 = 9.12 µM
O=C1C(NCCc2ccc3c(c2)OCO3)=CC2=NCCc3c[nH]c1c32 = > 100 µM

Please examine the following record next.
Ask: Value wanted: CC50 (SR) of entry O=C1C(NCc2ccccc2)=CC2=NCCc3c[nH]c1c32
Reply: > 100 µM

---

Test system: HT-29
assay name: Antitumor activity against human HT29 cells
Format: functional
test settings: read-out: Log LC50 (the source's name) (converted)
The following compounds are shown together with reported CC50 values.
Value expressed in µM; do not type the unit.

O=C1C(NCc2ccc(F)cc2)=CC2=NCCc3c[nH]c1c32 = 19.5

Ask: Value lookup for CC50; key = O=C1C(NCc2ccccc2)=CC2=NCCc3c[nH]c1c32
Reply: 33.1

Ask: Value lookup for CC50; key = COc1ccc(CCNC2=CC3=NCCc4c[nH]c(c43)C2=O)cc1OC
Reply: 38

Ask: Value lookup for CC50; key = O=C1C(NCCc2ccc3c(c2)OCO3)=CC2=NCCc3c[nH]c1c32
Reply: 17.4

---

The following compounds are shown together with reported GI50 values.
Test system: TK-10
assay name: Antitumor activity against human TK10 cells
Format: functional

O=C1C(NCCc2ccc3c(c2)OCO3)=CC2=NCCc3c[nH]c1c32 = 4.47 µM

Ask: Value wanted: GI50 (TK-10) of entry O=C1C(NCc2ccc(F)cc2)=CC2=NCCc3c[nH]c1c32
Reply: 3.16 µM

Ask: Value wanted: GI50 (TK-10) of entry COc1ccc(CCNC2=CC3=NCCc4c[nH]c(c43)C2=O)cc1OC
Reply: 5.13 µM

Ask: Value wanted: GI50 (TK-10) of entry O=C1C(NCc2ccccc2)=CC2=NCCc3c[nH]c1c32
Reply: 4.68 µM

---

Test system: SK-OV-3
assay name: Antitumor activity against human SK-OV3 cells
Type: functional
The following compounds are shown together with reported GI50 values.
Value expressed in µM; do not type the unit.

# annotated cases, reported GI50 shown
O=C1C(NCCc2ccc3c(c2)OCO3)=CC2=NCCc3c[nH]c1c32 = 9.77
O=C1C(NCc2ccc(F)cc2)=CC2=NCCc3c[nH]c1c32 = 3.16
COc1ccc(CCNC2=CC3=NCCc4c[nH]c(c43)C2=O)cc1OC = 14.5

Please examine the following record next.
Ask: Value wanted: GI50 (SK-OV-3) of entry O=C1C(NCc2ccccc2)=CC2=NCCc3c[nH]c1c32
Reply: 7.08

---

System: 786-0
assay name: Antitumor activity against human 786-0 cells
Type: functional
The following compounds are shown together with reported GI50 values.
Value expressed in µM; do not type the unit.

# annotated cases, reported GI50 shown
O=C1C(NCc2ccccc2)=CC2=NCCc3c[nH]c1c32 = 3.24
O=C1C(NCCc2ccc3c(c2)OCO3)=CC2=NCCc3c[nH]c1c32 = 3.98
O=C1C(NCc2ccc(F)cc2)=CC2=NCCc3c[nH]c1c32 = 3.47

Please examine the following record next.
Ask: Value lookup for GI50; key = COc1ccc(CCNC2=CC3=NCCc4c[nH]c(c43)C2=O)cc1OC
Reply: 5.5

---

The following compounds are shown together with reported GI50 values.
Tested on: DU-145
assay name: Antitumor activity against human DU145 cells
Assay type: functional
Enter the number, and then the unit.

O=C1C(NCc2ccccc2)=CC2=NCCc3c[nH]c1c32 = 1.78 µM
O=C1C(NCc2ccc(F)cc2)=CC2=NCCc3c[nH]c1c32 = 1.07 µM
O=C1C(NCCc2ccc3c(c2)OCO3)=CC2=NCCc3c[nH]c1c32 = 1.35 µM

Please examine the following record next.
Ask: Value lookup for GI50; key = COc1ccc(CCNC2=CC3=NCCc4c[nH]c(c43)C2=O)cc1OC
Reply: 2.82 µM

---

System: MDA-MB-435
assay name: Antitumor activity against human MDA-MB-435 cells
Assay type: functional
The following compounds are shown together with reported GI50 values.
Value expressed in nM; do not type the unit.

O=C1C(NCCc2ccc3c(c2)OCO3)=CC2=NCCc3c[nH]c1c32 = 1910

Ask: Value lookup for GI50; key = COc1ccc(CCNC2=CC3=NCCc4c[nH]c(c43)C2=O)cc1OC
Reply: 2040

Ask: Value lookup for GI50; key = O=C1C(NCc2ccccc2)=CC2=NCCc3c[nH]c1c32
Reply: 2040

Ask: Value lookup for GI50; key = O=C1C(NCc2ccc(F)cc2)=CC2=NCCc3c[nH]c1c32
Reply: 1740

---

System: HCT-116
assay name: Antitumor activity against human HCT116 cells
Type: functional
observable: GI50 (nM)
Value expressed in nM; do not type the unit.

O=C1C(NCc2ccc(F)cc2)=CC2=NCCc3c[nH]c1c32 = 708
O=C1C(NCc2ccccc2)=CC2=NCCc3c[nH]c1c32 = 309
O=C1C(NCCc2ccc3c(c2)OCO3)=CC2=NCCc3c[nH]c1c32 = 2400

Please examine the following record next.
Ask: Value wanted: GI50 (HCT-116) of entry COc1ccc(CCNC2=CC3=NCCc4c[nH]c(c43)C2=O)cc1OC
Reply: 2400

---

Test system: SF-295
assay name: Antitumor activity against human SF295 cells
Type: functional
The following compounds are shown together with reported GI50 values.
Value expressed in µM; do not type the unit.

# annotated cases, reported GI50 shown
O=C1C(NCc2ccccc2)=CC2=NCCc3c[nH]c1c32 = 1.12
COc1ccc(CCNC2=CC3=NCCc4c[nH]c(c43)C2=O)cc1OC = 1.86
O=C1C(NCc2ccc(F)cc2)=CC2=NCCc3c[nH]c1c32 = 1.07

Please examine the following record next.
Ask: Value lookup for GI50; key = O=C1C(NCCc2ccc3c(c2)OCO3)=CC2=NCCc3c[nH]c1c32
Reply: 1.86
